// data source = patent US20080249077A1

- target desc: glucocorticoid receptor (Homo sapiens, UniProt P04150)
- Construct: A549 cells stably transfected with a reporter gene; endogenous in cells; host or cells: A549 cells
- Sequence (P04150 1-777): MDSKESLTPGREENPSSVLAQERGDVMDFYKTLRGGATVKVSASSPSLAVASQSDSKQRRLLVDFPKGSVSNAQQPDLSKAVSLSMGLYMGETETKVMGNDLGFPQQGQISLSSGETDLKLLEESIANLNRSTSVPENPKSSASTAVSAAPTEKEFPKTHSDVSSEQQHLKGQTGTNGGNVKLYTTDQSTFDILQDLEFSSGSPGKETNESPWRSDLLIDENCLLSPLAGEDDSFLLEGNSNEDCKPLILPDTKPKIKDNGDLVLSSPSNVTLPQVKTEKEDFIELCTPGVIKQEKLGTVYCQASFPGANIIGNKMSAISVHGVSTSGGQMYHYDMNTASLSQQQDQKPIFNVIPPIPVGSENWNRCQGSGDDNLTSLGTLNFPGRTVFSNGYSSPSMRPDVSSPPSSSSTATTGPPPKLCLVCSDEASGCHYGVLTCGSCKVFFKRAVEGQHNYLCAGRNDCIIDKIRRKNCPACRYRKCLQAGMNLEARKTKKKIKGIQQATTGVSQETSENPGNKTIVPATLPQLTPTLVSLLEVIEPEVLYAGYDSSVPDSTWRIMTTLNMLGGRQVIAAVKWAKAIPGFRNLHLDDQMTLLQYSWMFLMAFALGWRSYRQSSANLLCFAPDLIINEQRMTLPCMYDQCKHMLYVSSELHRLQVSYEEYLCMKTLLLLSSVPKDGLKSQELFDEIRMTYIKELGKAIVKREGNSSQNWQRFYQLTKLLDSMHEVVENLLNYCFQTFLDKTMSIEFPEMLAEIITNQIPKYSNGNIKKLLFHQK
- test: Assay for transactivation activity of the glucocorticoid agonists (MMTV-LTR renilla luciferase reporter in A549 cells)
- Format: cell-based
- condition label: compound 6 hour at 37° C., read-out: maximal response relative to Dexamethasone (100%) (transactivation)
Hi there, I'd appreciate the recorded Emax for every entry that follows.

Examples from the recorded data:
1) C[C@@H]1C[C@H]2[C@@H]3C[C@H](F)C4=CC(=O)C=C[C@]4(C)[C@@]3(F)[C@@H](O)C[C@]2(C)[C@@]1(OC(=O)OCC(C)(C)C)C(=O)OCF; < 25%
2) C[C@@H]1C[C@H]2[C@@H]3C[C@H](F)C4=CC(=O)C=C[C@]4(C)[C@@]3(F)[C@@H](O)C[C@]2(C)[C@@]1(OC(=O)O[C@@H]1[C@@H]2CC[C@@H](C2)C1(C)C)C(=O)OCF; < 25%
3) C[C@@H]1C[C@H](C)C[C@H](OC(=O)O[C@]2(C(=O)OCF)[C@H](C)C[C@H]3[C@@H]4C[C@H](F)C5=CC(=O)C=C[C@]5(C)[C@@]4(F)[C@@H](O)C[C@@]32C)C1; < 25%

Could I get Emax for every one of these entries?
1. C[C@@H]1C[C@H]2[C@@H]3C[C@H](F)C4=CC(=O)C=C[C@]4(C)[C@@]3(F)[C@@H](O)C[C@]2(C)[C@@]1(OC(=O)OC1CCCCCC1)C(=O)OCF
2. CCCC(OC(=O)O[C@]1(C(=O)OCF)[C@H](C)C[C@H]2[C@@H]3C[C@H](F)C4=CC(=O)C=C[C@]4(C)[C@@]3(F)[C@@H](O)C[C@@]21C)C(C)C (some centres unmarked)
3. C[C@@H]1C[C@H]2[C@@H]3C[C@H](F)C4=CC(=O)C=C[C@]4(C)[C@@]3(F)[C@@H](O)C[C@]2(C)[C@@]1(OC(=O)OCC1C(C)(C)C1(C)C)C(=O)OCF
4. CC1CC2C3CC(F)C4=CC(=O)C=CC4(C)C3(F)C(O)CC2(C)C1(OC(=O)OC1CC2CCC1(C)C2(C)C)C(=O)OCF (centres unmarked)
5. CC(C)C1CCC(OC(=O)O[C@]2(C(=O)OCF)[C@H](C)C[C@H]3[C@@H]4C[C@H](F)C5=CC(=O)C=C[C@]5(C)[C@@]4(F)[C@@H](O)C[C@@]32C)CC1 (some centres unmarked)
6. CC(OC(=O)O[C@]1(C(=O)OCF)[C@H](C)C[C@H]2[C@@H]3C[C@H](F)C4=CC(=O)C=C[C@]4(C)[C@@]3(F)[C@@H](O)C[C@@]21C)C1CCCC1 (some centres unmarked)
7. CC[C@H]1CC[C@@H](OC(=O)O[C@]2(C(=O)OCF)[C@H](C)C[C@H]3[C@@H]4C[C@H](F)C5=CC(=O)C=C[C@]5(C)[C@@]4(F)[C@@H](O)C[C@@]32C)CC1 (relative stereo)
8. CCCC(CCC)OC(=O)O[C@]1(C(=O)OCF)[C@H](C)C[C@H]2[C@@H]3C[C@H](F)C4=CC(=O)C=C[C@]4(C)[C@@]3(F)[C@@H](O)C[C@@]21C

Given back:
["< 25%", "< 25%", "< 25%", "< 25%", "< 25%", "< 25%", "< 25%", "< 25%"]
